Structures can show the parent of a compound that is named as a salt.
Property Label: melting point

Completed entries (count: 2):
> print(dat)
                                   molecule        value.reported
1  Cc1ccc(C)c(-c2sc(NC(=O)[C@@H]3C[C@H]4CC[C@@H]3CC4)c(C#N)c2Cl)c1 (stereo in doubt)         208 to 210 °C
2  Cc1ccc(N(C)CCCc2sc(NC(=O)[C@@H]3C[C@@H]4CC[C@H]3C4)c(C#N)c2C)cc1 (as salt: hydrochloride)  116 to 129 °C (dec.)

Incoming: # get_value(readout='melting point', item= `Cc1ccc(C)c(-c2sc(NC(=O)[C@@H]3C[C@@H]4CC[C@H]3C4)c(C#N)c2C(F)(F)F)c1` )
Outgoing: 231 to 233 °C

Incoming: Fill in the blank: the reported melting point of Cc1c(CCCN(C)c2ccccn2)sc(NC(=O)C2CC3CCC2CC3)c1C#N (stereo not shown) (as salt: hydrochloride) is ____.
Outgoing: > 80 °C (dec.)

Incoming: Could you tell me which melting point is on file for `Cc1ccc(C)c(-c2sc(NC(=O)[C@@H]3C[C@H]4CC[C@@H]3C4)c(C#N)c2C(F)(F)F)c1` ?
Outgoing: 239 to 240 °C

Incoming: Dear colleague, I am looking for the recorded melting point of the following molecule: `Cc1ccc(C)c(-c2sc(NC(=O)[C@@H]3C[C@@H]4C=C[C@H]3C4)c(C#N)c2C(F)(F)F)c1`
Outgoing: 213 to 214 °C

Incoming: # get_value(readout='melting point', item= `N#Cc1c(NC(=O)C2CCCCC2)sc(-c2ccccc2)c1C#N` )
Outgoing: 208 to 212 °C
